- TARGET_DESC: δ-opioid receptor (DOR), Human-ORPD1 (human, UniProt P41143 1-372)
- Sequence (P41143 whole entry, stated change not applied): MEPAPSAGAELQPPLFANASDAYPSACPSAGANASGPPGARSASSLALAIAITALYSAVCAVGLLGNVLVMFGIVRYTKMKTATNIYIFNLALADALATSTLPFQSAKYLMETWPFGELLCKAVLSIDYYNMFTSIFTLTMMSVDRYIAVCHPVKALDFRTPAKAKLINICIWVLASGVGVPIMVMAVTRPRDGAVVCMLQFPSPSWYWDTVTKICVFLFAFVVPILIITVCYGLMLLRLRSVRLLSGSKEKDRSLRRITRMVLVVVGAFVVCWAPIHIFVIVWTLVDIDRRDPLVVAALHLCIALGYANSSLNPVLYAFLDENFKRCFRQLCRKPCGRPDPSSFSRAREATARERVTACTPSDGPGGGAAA
- METHOD_SUMMARY: cell-based or functional assay
Square brackets hold non-standard residues; d marks the D form. Dmt = Cc1cc(O)cc(C)c1C[C@H](N)C(=O)O; β3hF = N[C@H](CC(=O)O)Cc1ccccc1; Nle = CCCC[C@H](N)C(=O)O; Sar = CNCC(=O)O
READOUT_NAME: DOR EC50

{"BINDER": "H-[Dmt][dR]W[Nle]-NH2 (SMILES CCCC[C@H](NC(=O)[C@H](Cc1c[nH]c2ccccc12)NC(=O)[C@@H](CCCNC(=N)N)NC(=O)[C@@H](N)Cc1c(C)cc(O)cc1C)C(N)=O) [H-DMT-r-W-Nle-NH2]", "RESULT": "≤ 50 nM"}
{"BINDER": "H-[Phe(4-NHCOCH3)][dA]G[β3hF][Sar]-NH2 [H-Phe(4-NHCOCH3)-a-G-bhF-Sar-NH2]", "RESULT": "≤ 200 nM"}
{"BINDER": "H-[Dmt][dA]A[β3hF][Sar]-NH2 (SMILES Cc1cc(O)cc(C)c1C[C@H](N)C(=O)N[C@H](C)C(=O)N[C@@H](C)C(=O)N[C@H](CC(=O)N(C)CC(N)=O)Cc1ccccc1) [H-DMT-a-Ala-bhF-Sar-NH2]", "RESULT": "≤ 1 nM"}
{"BINDER": "H-[Dmt][dT]G[β3hF][Sar]-NH2 (SMILES Cc1cc(O)cc(C)c1C[C@H](N)C(=O)N[C@@H](C(=O)NCC(=O)N[C@H](CC(=O)N(C)CC(N)=O)Cc1ccccc1)[C@H](C)O) [H-DMT-(D)Thr-G-bhF-Sar-NH2]", "RESULT": "≤ 1 nM"}
